Biological target: UniProtKB P49674
Sequence (P49674 whole entry, looked up): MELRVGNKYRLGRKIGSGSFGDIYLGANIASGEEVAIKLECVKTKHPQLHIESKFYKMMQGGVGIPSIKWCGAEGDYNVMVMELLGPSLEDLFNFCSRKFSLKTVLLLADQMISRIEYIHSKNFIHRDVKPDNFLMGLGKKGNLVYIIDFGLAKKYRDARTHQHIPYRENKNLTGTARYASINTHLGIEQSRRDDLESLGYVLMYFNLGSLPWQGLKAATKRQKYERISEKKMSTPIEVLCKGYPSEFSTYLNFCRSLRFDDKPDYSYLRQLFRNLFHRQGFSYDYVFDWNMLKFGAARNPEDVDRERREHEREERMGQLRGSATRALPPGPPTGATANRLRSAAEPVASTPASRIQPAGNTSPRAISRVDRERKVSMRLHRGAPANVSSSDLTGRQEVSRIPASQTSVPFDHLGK
Experiment: radiometric filter-binding kinase assay, Kinase HotSpot
Settings: compound 0.5 µM; ATP 10 µM
If the reported residual activity equals or exceeds 90%, assign yes. If not, assign no.

Solved cases below.
*Q* # check: residual activity of COc1cc2nccc(Oc3ccc(NC(=S)NC(=O)c4ccccc4C)cc3)c2cc1OC is greater than or equal to 90%
*A* yes

*Q* # check: residual activity of NC(=O)c1ccc(N(C(N)=O)c2c(F)cccc2F)nc1-c1ccc(F)cc1F is greater than or equal to 90%
*A* yes

*Q* # check: residual activity of CSc1nc(-c2ccc(F)cc2)c(-c2ccnc(NC(C)c3ccccc3)c2)[nH]1 (stereo not given) is greater than or equal to 90%
*A* no

***
*Q* # check: residual activity of COc1ccc(-c2cnc3c(-c4ccsc4)cnn3c2)cc1 is greater than or equal to 90%
*A* no

###

Target: ADRBK1 (human) (UniProt P25098)
Sequence (P25098 whole entry, looked up): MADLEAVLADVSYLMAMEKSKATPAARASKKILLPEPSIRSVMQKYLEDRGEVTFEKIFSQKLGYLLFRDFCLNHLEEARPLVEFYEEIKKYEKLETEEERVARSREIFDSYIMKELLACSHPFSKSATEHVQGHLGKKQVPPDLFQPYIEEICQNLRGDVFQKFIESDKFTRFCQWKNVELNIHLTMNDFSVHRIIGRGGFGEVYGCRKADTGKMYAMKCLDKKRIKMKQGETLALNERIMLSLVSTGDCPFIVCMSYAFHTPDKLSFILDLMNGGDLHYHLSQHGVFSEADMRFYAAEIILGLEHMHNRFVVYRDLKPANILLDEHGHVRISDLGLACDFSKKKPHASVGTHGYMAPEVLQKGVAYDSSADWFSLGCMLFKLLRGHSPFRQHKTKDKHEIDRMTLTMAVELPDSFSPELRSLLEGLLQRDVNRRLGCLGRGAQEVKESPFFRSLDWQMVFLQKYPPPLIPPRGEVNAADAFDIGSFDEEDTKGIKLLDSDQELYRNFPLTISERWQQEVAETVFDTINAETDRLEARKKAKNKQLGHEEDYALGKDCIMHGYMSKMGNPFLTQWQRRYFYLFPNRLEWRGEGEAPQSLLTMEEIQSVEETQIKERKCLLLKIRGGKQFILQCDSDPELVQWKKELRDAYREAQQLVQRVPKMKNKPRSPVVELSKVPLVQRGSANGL
Experiment: radiometric filter-binding kinase assay, Kinase HotSpot
Settings: compound 0.5 µM; ATP 10 µM
PROPERTY: residual activity (%)
One number for each entry, in %.

The examples below pair each entry with its known result.
*Q* Query (molecule): C#Cc1cccc(Nc2ncnc3cc(OCCOC)c(OCCOC)cc23)c1 ; field requested: residual activity
*A* 92.9

*Q* Query (molecule): COc1ccc(-c2cnc3c(-c4ccsc4)cnn3c2)cc1 ; field requested: residual activity
*A* 100

*Q* Query (molecule): O=C1Nc2cc(Br)ccc2/C1=C1/Nc2ccccc2/C1=N\O ; field requested: residual activity
*A* 97.3

*Q* Query (molecule): O=C(Nc1ccc(Cl)cc1)c1ccccc1NCc1ccncc1 ; field requested: residual activity
*A* 98.2

*Q* Query (molecule): CC(C)n1cnc2c(Nc3cccc(Cl)c3)nc(NCCO)nc21 ; field requested: residual activity
*A* 96

Let us examine a further case.
*Q* Query (molecule): Cc1cc2ncc(-c3ccccc3)nc2cc1C ; field requested: residual activity
*A* 92.5

###

Exercise: for every item that follows, state its recorded residual activity.
Biological target: STK16 (human)
Experiment: radiometric filter-binding kinase assay, Kinase HotSpot
Settings: compound 0.5 µM; ATP 10 µM
One number for each entry, in %.

For every item below, please supply its residual activity.
1. Cc1cc2ncc(-c3ccccc3)nc2cc1C
2. O=c1cc(-c2cccc3c2Sc2ccccc2S3)oc(N2CCOCC2)c1
3. O=C(Nc1ccc(Cl)cc1)c1ccccc1NCc1ccncc1

*A*
1: 108; 2: 95.5; 3: 94.1

###

Target: HCK (human)
Assay: radiometric filter-binding kinase assay, Kinase HotSpot
Settings: compound 0.5 µM; ATP 10 µM
Exercise: for every item that follows, state its recorded residual activity.
One number for each entry, in %.

The examples below pair each entry with its known result.
*Q* Recall the recorded residual activity for CCCNC(=O)Nc1ccc(Oc2ncnc3cc(OC)c(OC)cc23)cc1Cl with HCK (human) and state it.
*A* 88.7

*Q* Recall the recorded residual activity for O=C(NC(NC(=S)Nc1ccc(F)c([N+](=O)[O-])c1)C(Cl)(Cl)Cl)C(c1ccccc1)c1ccccc1 (stereo not given) with HCK (human) and state it.
*A* 107

*Q* Recall the recorded residual activity for COc1cc2nccc(Oc3ccc(NC(=S)NC(=O)c4ccccc4C)cc3)c2cc1OC with HCK (human) and state it.
*A* 4.93

*Q* Recall the recorded residual activity for O=C(Nc1ccc(Cl)cc1)c1ccccc1NCc1ccncc1 with HCK (human) and state it.
*A* 101

Let us examine a further case.
*Q* Recall the recorded residual activity for COc1ccc(-c2cnc3c(-c4ccsc4)cnn3c2)cc1 with HCK (human) and state it.
*A* 81.9

###

Exercise: for every item that follows, state its recorded residual activity.
Molecular target: CHUK (human)
Test: radiometric filter-binding kinase assay, Kinase HotSpot
Conditions: compound 0.5 µM; ATP 10 µM
Give bare numbers, in %.

For every item below, please supply its residual activity.
1. O=C(NC(NC(=S)Nc1ccc(F)c([N+](=O)[O-])c1)C(Cl)(Cl)Cl)C(c1ccccc1)c1ccccc1 (stereo not given)
2. C#Cc1cccc(Nc2ncnc3cc(OCCOC)c(OCCOC)cc23)c1

*A*
1: 91.5; 2: 94.2

For every item below, please supply its residual activity.
1. COc1cc2ncnc(Nc3ccc(F)c(Cl)c3)c2cc1OCCCN1CCOCC1
2. CC(C)(C)c1nc2c3ccc(F)cc3c3c(=O)[nH]ccc3c2[nH]1
3. CCN1/C(=C/C(C)=O)Sc2ccc(OC)cc21

*A*
[94.9, 102, 89.9]

###

Target: PNCK (human) (UniProt Q6P2M8)
Sequence (Q6P2M8 whole entry, looked up): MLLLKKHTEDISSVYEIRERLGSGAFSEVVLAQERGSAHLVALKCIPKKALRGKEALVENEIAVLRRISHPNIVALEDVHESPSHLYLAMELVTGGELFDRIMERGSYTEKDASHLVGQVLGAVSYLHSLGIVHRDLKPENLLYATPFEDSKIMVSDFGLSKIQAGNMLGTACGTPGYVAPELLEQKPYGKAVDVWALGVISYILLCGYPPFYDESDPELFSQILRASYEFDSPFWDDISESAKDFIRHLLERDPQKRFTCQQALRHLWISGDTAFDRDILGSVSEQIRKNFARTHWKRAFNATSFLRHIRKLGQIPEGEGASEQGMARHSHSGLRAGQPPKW
Assay: radiometric filter-binding kinase assay, Kinase HotSpot
Conditions: compound 0.5 µM; ATP 10 µM
PROPERTY: residual activity (%)
Answers are plain numbers, in %.

*Q* Query (compound): O=C1Nc2ccccc2/C1=C\c1c(Cl)[nH]c2ccccc12 ; field requested: residual activity
*A* 92.9

*Q* Query (compound): CCN1/C(=C/C(C)=O)Sc2ccc(OC)cc21 ; field requested: residual activity
*A* 101

*Q* Query (compound): O=C1Cc2c([nH]c3ccc([N+](=O)[O-])cc23)-c2ccccc2N1 ; field requested: residual activity
*A* 107

*Q* Query (compound): COc1cc2ncnc(Nc3ccc(F)c(Cl)c3)c2cc1OCCCN1CCOCC1 ; field requested: residual activity
*A* 108

For every item below, please supply its residual activity.
1. C#Cc1cccc(Nc2ncnc3cc(OCCOC)c(OCCOC)cc23)c1
2. CS(=O)c1ccc(-c2nc(-c3ccc(F)cc3)c(-c3ccncc3)[nH]2)cc1 (stereo not given)
3. Oc1ccc(-c2nc(-c3ccc(F)cc3)c(-c3ccncc3)[nH]2)cc1
4. Nc1nc(Nc2ccc(S(N)(=O)=O)cc2)nn1C(=S)Nc1c(F)cccc1F

*A*
103
102
99.7
89.1

For every item below, please supply its residual activity.
1. Clc1ccc(Nc2nnc(Cc3ccncc3)c3ccccc23)cc1
2. CSc1nc(-c2ccc(F)cc2)c(-c2ccnc(NC(C)c3ccccc3)c2)[nH]1 (stereo not given)
3. COc1ccc(-c2cnc3c(-c4ccsc4)cnn3c2)cc1
4. O=c1cc(N2CCNCC2)oc2c(-c3ccccc3)cccc12
5. NC(=O)c1ccc(N(C(N)=O)c2c(F)cccc2F)nc1-c1ccc(F)cc1F

*A*
103
92.9
90.9
99.8
108

###

Exercise: for every item that follows, state its recorded residual activity.
Biological target: UniProt:P28482
Sequence (P28482 whole entry, looked up): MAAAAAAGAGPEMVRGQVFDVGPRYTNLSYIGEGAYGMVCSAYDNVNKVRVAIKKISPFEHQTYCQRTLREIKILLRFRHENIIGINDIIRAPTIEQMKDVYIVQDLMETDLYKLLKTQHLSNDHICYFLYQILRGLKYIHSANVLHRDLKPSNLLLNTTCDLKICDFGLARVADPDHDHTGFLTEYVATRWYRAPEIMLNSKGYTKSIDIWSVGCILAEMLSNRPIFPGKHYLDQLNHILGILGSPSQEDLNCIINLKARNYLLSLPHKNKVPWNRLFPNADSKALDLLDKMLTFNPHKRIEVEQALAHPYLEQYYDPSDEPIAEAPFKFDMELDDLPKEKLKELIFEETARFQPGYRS
Assay: radiometric filter-binding kinase assay, Kinase HotSpot
Conditions: compound 0.5 µM; ATP 10 µM
Answers are plain numbers, in %.

*Q* Query (compound): CSc1nc(-c2ccc(F)cc2)c(-c2ccnc(NC(C)c3ccccc3)c2)[nH]1 (stereo unspecified) ; field requested: residual activity
*A* 102

*Q* Query (compound): Clc1ccc(Nc2nnc(Cc3ccncc3)c3ccccc23)cc1 ; field requested: residual activity
*A* 87.6

For every item below, please supply its residual activity.
1. COc1cc2ncnc(Nc3ccc(F)c(Cl)c3)c2cc1OCCCN1CCOCC1
2. COc1ccc(-c2cnc3c(-c4ccsc4)cnn3c2)cc1
3. Cc1cc2ncc(-c3ccccc3)nc2cc1C

*A*
1. 103
2. 99.2
3. 88

For every item below, please supply its residual activity.
1. COc1cc2nccc(Oc3ccc(NC(=S)NC(=O)c4ccccc4C)cc3)c2cc1OC
2. C#Cc1cccc(Nc2ncnc3cc(OCCOC)c(OCCOC)cc23)c1
3. O=C1Nc2cc(Br)ccc2/C1=C1/Nc2ccccc2/C1=N\O
4. O=c1cc(-c2cccc3c2Sc2ccccc2S3)oc(N2CCOCC2)c1
5. Nc1n[nH]c2nnc(-c3c(-c4ccccc4)nn4ccccc34)cc12
6. Nc1nc(Nc2ccc(S(N)(=O)=O)cc2)nn1C(=S)Nc1c(F)cccc1F
7. O=C1Nc2ccccc2/C1=C\c1c(Cl)[nH]c2ccccc12

*A*
[89.3, 116, 113, 100, 87.2, 76.2, 96.4]

For every item below, please supply its residual activity.
1. Oc1ccc(-c2nc(-c3ccc(F)cc3)c(-c3ccncc3)[nH]2)cc1
2. CCCNC(=O)Nc1ccc(Oc2ncnc3cc(OC)c(OC)cc23)cc1Cl
3. O=C(Nc1ccc(Cl)cc1)c1ccccc1NCc1ccncc1
4. O=c1cc(N2CCNCC2)oc2c(-c3ccccc3)cccc12
5. NC(=O)c1ccc(N(C(N)=O)c2c(F)cccc2F)nc1-c1ccc(F)cc1F

*A*
1. 97.2
2. 101
3. 94.7
4. 65.4
5. 85.7

For every item below, please supply its residual activity.
1. Nc1nc(Nc2ccc(S(N)(=O)=O)cc2)nn1C(=O)c1c(F)cccc1F
2. CC(C)n1cnc2c(Nc3cccc(Cl)c3)nc(NCCO)nc21
3. Cc1ccc(NC(=O)c2ccc(CN3CCN(C)CC3)cc2)cc1Nc1nc(-c2cccnc2)cs1

*A*
[98.4, 107, 91.6]

###

Exercise: for every item that follows, state its recorded residual activity.
Target: SRPK2 (human) (UniProt P78362)
Sequence (P78362 whole entry, looked up): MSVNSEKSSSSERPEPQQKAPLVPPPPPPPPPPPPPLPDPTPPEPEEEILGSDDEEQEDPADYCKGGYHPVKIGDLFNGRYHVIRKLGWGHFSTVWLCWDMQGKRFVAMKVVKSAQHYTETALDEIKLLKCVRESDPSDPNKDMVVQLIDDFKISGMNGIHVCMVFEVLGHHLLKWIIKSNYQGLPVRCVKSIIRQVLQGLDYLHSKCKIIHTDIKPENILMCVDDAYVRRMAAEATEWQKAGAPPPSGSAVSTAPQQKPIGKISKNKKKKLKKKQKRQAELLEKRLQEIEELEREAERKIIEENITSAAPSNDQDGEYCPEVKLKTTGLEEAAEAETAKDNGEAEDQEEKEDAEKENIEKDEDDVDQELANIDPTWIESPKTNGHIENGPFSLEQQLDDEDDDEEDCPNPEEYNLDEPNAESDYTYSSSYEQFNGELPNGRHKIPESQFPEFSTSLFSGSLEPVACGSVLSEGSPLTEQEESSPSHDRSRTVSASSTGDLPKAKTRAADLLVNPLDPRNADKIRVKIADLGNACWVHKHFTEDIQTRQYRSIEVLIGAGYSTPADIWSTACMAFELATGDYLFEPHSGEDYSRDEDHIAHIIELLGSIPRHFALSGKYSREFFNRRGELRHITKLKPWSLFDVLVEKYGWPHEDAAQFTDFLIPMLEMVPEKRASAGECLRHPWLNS
Assay: radiometric filter-binding kinase assay, Kinase HotSpot
Settings: compound 0.5 µM; ATP 10 µM
One number for each entry, in %.

*Q* Query (compound): CCCNC(=O)Nc1ccc(Oc2ncnc3cc(OC)c(OC)cc23)cc1Cl ; field requested: residual activity
*A* 91.1

*Q* Query (compound): CSc1nc(-c2ccc(F)cc2)c(-c2ccnc(NC(C)c3ccccc3)c2)[nH]1 (stereo not drawn) ; field requested: residual activity
*A* 94.4

Let us examine a further case.
*Q* Query (compound): Nc1nc(Nc2ccc(S(N)(=O)=O)cc2)nn1C(=O)c1c(F)cccc1F ; field requested: residual activity
*A* 54.9

Source listed as the kinase profiling compilation of Christmann-Franck et al. (2016).
